Reported MFI fold over background by item:
subject_of_test: T1, mouse GPNMB endogenously expressed on B16F10 cells (mouse, UniProt Q99P91 23-574)
T1 construct: whole, on cells; also called moGPNMB
T1 sequence (looked up): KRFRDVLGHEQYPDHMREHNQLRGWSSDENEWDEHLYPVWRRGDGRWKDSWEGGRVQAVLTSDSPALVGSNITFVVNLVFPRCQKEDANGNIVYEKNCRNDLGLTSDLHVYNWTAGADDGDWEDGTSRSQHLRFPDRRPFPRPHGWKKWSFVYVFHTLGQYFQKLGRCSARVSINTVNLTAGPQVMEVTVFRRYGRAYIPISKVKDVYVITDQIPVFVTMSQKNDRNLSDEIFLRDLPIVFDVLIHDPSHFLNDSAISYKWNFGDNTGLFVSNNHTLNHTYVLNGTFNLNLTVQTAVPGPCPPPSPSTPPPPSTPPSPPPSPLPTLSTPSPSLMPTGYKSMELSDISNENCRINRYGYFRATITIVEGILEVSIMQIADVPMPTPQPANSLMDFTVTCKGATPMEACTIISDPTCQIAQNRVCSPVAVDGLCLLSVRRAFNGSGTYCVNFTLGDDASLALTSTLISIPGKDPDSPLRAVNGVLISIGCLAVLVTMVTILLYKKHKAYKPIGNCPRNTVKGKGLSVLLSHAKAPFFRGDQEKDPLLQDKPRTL
method: FACS, B16F10 cells
Value expressed in fold; do not type the unit.

binder	observable	unit_abbrev	assay_value
anti-GPNMB antibody GPN-34 (antibody, human IgG1, V domains shown, chimeric) VH: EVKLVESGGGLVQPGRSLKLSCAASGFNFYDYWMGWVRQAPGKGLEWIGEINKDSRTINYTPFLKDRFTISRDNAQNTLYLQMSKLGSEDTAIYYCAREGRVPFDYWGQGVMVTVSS VL: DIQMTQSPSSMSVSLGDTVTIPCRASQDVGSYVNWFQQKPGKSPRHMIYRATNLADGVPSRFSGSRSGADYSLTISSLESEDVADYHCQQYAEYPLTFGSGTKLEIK	MFI fold over background	fold	1.1
anti-GPNMB antibody GPN-07 (antibody, human IgG1, V domains shown, chimeric) VH: QVQLQQSGAEQVKPGASVKLSCKASGYTFTSYYMYWVKQRPGQGLEWIGEINPSNGGTYFNEKFKSKATLTVDKSSSTAYMHLSSLTSEDSAVYYCTRGGTYYAYWGQGTLVTVSA VL: DIQMTQSPSSLSASLGERVSLTCRASQEMSGHLSWLQQKPDGTIKRLIYAASTLDSGVPKRFSGSRSGSDYSLTISSLESEDFADYYCLQYASYPYTFGGGTKLEIK	MFI fold over background	fold	1
anti-GPNMB antibody GPN-22 (antibody, human IgG1, V domains shown, chimeric) VH: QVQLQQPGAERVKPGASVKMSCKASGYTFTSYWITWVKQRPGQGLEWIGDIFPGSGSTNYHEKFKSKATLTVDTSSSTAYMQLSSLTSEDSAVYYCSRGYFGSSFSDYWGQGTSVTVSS VL: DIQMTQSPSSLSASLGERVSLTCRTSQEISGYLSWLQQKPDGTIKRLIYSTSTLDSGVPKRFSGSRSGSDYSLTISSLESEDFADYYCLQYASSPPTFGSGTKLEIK	MFI fold over background	fold	1

Next binder, please.
# binder anti-GPNMB antibody GPN-31 (antibody, human IgG1, V domains shown, chimeric) VH: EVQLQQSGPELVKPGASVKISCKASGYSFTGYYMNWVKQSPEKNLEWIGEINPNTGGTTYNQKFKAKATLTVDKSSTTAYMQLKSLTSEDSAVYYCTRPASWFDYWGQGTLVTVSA VL: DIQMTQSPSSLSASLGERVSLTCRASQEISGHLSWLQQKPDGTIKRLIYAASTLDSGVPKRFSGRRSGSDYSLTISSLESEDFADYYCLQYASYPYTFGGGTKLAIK ; its MFI fold over background = 1
